From: ChEMBL document CHEMBL3351757

Target: Histone deacetylase (Rattus norvegicus) (UniProt Q6P6W3+Q99P99+Q99P96+Q4QQW4+Q99P97+Q5RJZ2+B1WBY8);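 also: HDAC from rat liver, compound preincubated 15 min, then Boc-Lys(Ac)-AMC substrate added, fluorescence read 30 min later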
Settings: at 0.1 µM
Description: Inhibition of rat liver HDAC at 0.1 uM pre-incubated for 15 mins before Boc-Lys(Ac)-AMC substrate addition and measured after 30 mins by fluorometry
OBSERVATION TYPE: inhibition (%)

Solved entries:
>>> df
                        structure_as_smiles  display_unit  recorded_value
0  Cn1c(=O)ccc2cc(C(=O)NCCCCCCC(=O)NO)ccc21             %              63
1  CN1C(=O)CCc2cc(C(=O)NCCCCCCC(=O)NO)ccc21             %              51
2   O=C(CCCCCCNC(=O)c1ccc2c(c1)CCC(=O)N2)NO             %              45

[P] O=C(CCCCCCC(=O)Nc1ccc2c(c1)CCC(=O)N2)NO
[Q] O=C(CCCCCOc1ccc2[nH]c(=O)ccc2c1)NO
Prompt: For this pair, P and Q , which shows a numerically higher inhibition? Indicate your choice by writing its label.
Completion: P
(P: 51%, Q: 19%)
